These measurements were taken from PubChem BioAssay.

# ASSAY METHOD TEXT: adipocyte viability effects, profiling panel, cell-based, 3T3-L1 adipocytes, calcein-AM fluorescence, 48 h, basal (AID 1163); also: test concentration not given here
# ASSAY SETUP: 3T3-L1 adipocytes viability, higher = more signal
Give measured z-score for each item. Keep answers brief.
Answers are plain numbers.

// worked examples, z-score included
[[record]]
molecule = "CCCNC(=O)OC[C@H]1O[C@H](CCON=C(C)CCC(=O)OC[C@H]2O[C@H](C#Cc3ccccc3)C=C[C@@H]2Oc2ccc(C)cc2)C=C[C@@H]1Oc1ccc(OC)cc1"
recorded_number = -0.182

[[record]]
molecule = "CCOC(=O)[C@H](CC(C)C)NC(=O)CCC1CC(OC(=O)NCc2cccc3ccccc23)CC2(CCCC(COC(=O)NCc3ccccc3)O2)O1 (some centres not stated)"
recorded_number = -0.172


Consider the following items and state reported z-score for each.
1. CCOC(=O)NN=C1C[C@@H](O)[C@@H](O)[C@@H]2[C@@H]3C(=O)N(Cc4ccc5c(c4)OCO5)C(=O)[C@@H]3CC[C@@H]12
2. CC(C)=NOC[C@@H](O)COCc1ccco1
3. Cc1cc2c(nc1C)CCCN2CC(C)ON=C[C@@H](C)[C@H](OCc1ccccc1)C(C)C (some centres not stated)
4. CO[C@@H]1C=CCC(=O)N2CCC[C@H]2C(=O)OC[C@H](C)C(=O)OC[C@H]1C
5. C[C@@H](ON=C1[C@H]2CCn3c(=O)n(-c4ccccc4)c(=O)n3[C@H]2[C@H](O)[C@@H]2O[C@H]12)c1cn([C@H](CO)Cc2ccccc2)nn1

Output:
1: -0.54; 2: -0.611; 3: -0.641; 4: 0.345; 5: -0.002
